- tested system: human BRD4 bromodomain II (Homo sapiens, UniProt O60885)
- Construct: human BRD4 bromodomain II [based on Genbank NM_058243, residues 349-460]; host or cells: E. coli
- measurement protocol: Bromodomain binding assay (AlphaScreen), BRD4 BDII
- test conditions: AlphaScreen assay, Table C2; read-out: BRD4 BDII IC50
quantity kind: IC50

The following compounds have reported results that may help.
1. CC(=O)Nc1ccc(-c2cccc(-c3cc(N4CCNCC4)no3)c2O)cc1OC(F)(F)F ... > 100 nM
2. Cn1nnn(-c2ccc(-c3cc(F)cc(-c4ccnc(N5CCNCC5)c4)c3O)cc2Cl)c1=O ... 10 to 100 nM
3. CC(=O)Nc1ccc(-c2cccc(-c3ccc4[nH]ccc4c3)c2O)cc1F ... > 100 nM

Please find the next compound below.
Task: Quick one: IC50 for Cn1ccn(-c2ccc(-c3cc(F)cc(-c4ccnc(N5CC6CCC(C5)C6(C)N)c4)c3O)cc2Cl)c1=O (stereo not shown) ?
Result: 0.01 to 1 nM

====

A collection of molecules and their measured pIC50
- tested system: human BRD4 bromodomain II (Homo sapiens)
- Construct: human BRD4 bromodomain II [based on Genbank NM_058243, residues 349-460]; host or cells: E. coli
- measurement protocol: Bromodomain binding assay (AlphaScreen), BRD4 BDII
- test conditions: AlphaScreen assay, Table C2; read-out: BRD4 BDII IC50
pIC50: −log10 of the molar value.

1) COCCCN1CCN(c2cc(-c3cc(F)cc(-c4ccc(-n5ccn(C)c5=O)c(Cl)c4)c3O)ccn2)CC1 [Example 633] ... 9.00 to 11.00

Task: Reported pIC50 for CC(=O)Nc1ccc(-c2cccc(-c3ccnc(N4CCNCC4)c3)c2O)cc1F [Example 163] : what is it?
Result: 8.00 to 9.00

Task: Find the recorded pIC50 belonging to COc1ncc(-c2cc(F)cc(-c3ccc(-n4ccn(C)c4=O)c(Cl)c3)c2O)cc1N1CC2CCC(C1)N2C(C)C [Example 836] and report it.
Result: 8.00 to 9.00

Task: Please look up its pIC50: CC(=O)Nc1ccc(-c2cccc(-c3ccc4[nH]cnc4c3)c2O)cc1F [Example 131]
Result: 7.00 to 8.00

====

Reported pIC50 values for the following compounds.
- tested system: human BRD4 bromodomain II (Homo sapiens)
- Construct: human BRD4 bromodomain II [based on Genbank NM_058243, residues 349-460]; host or cells: E. coli
- measurement protocol: Bromodomain binding assay (AlphaScreen), BRD4 BDII
- test conditions: AlphaScreen assay, Table C2; read-out: BRD4 BDII IC50
pIC50: −log10 of the molar value.

As a guide, the following entries are already answered.
1. Cc1cc(-c2cc(F)cc(-c3ccnc(N4CCNCC4)c3)c2O)cc(Cl)c1N1CCN(C)C1=O ... < 7.00
2. Cn1ccn(-c2ccc(-c3cc(F)cc(-c4cc(-c5cn[nH]c5)nc(N5CCNCC5)c4)c3O)cc2Cl)c1=O ... 9.00 to 11.00
3. CCc1ccc(-c2cccc(-c3ccc(NC(C)=O)c(F)c3)c2O)cc1 ... < 7.00
4. CNC(=O)c1cc(-c2ccnc(N3CCNCC3)c2)c(O)c(-c2ccc(NC(C)=O)c(F)c2)c1 ... 7.00 to 8.00
5. Cc1ccc(-c2cc(F)cc(-c3ccc(-n4ccn(C)c4=O)c(Cl)c3)c2O)cc1N1CC[C@@](C)(O)C1 ... 8.00 to 9.00

Task: Requested read-out: pIC50. Entry: CCOC(=O)c1ccc(-c2cccc(-c3ccc(NC(C)=O)c(F)c3)c2O)cc1
Result: < 7.00

Task: Report pIC50 for CCNC(=O)c1ccc(-c2cccc(-c3ccc(NC(C)=O)c(F)c3)c2O)cc1 please.
Result: < 7.00

Task: So what does the record say about pIC50 for CN1CCOC2CN(c3cc(-c4cc(F)cc(-c5ccc(-n6ccn(C)c6=O)c(Cl)c5)c4O)ccn3)CC21 (centres unmarked) ?
Result: 8.00 to 9.00

====

- System: human SKM-1 acute myeloid leukemia cells
- measurement protocol: SKM-1 antiproliferation cell-based assay (ATPlite)
- test conditions: Homo sapiens, SKM-1, 96 h, SKM-1 antiproliferation assay, 4 days, Table C2
Measured GI50, listed per entry.

Task: I'm curious: which GI50 was measured for Cn1cc(-c2cc(F)cc(-c3ccc(-n4ccn(C)c4=O)c(Cl)c3)c2O)cc(N2CC[C@](C)(N)C2)c1=O [Example 759] tested on human SKM-1 acute myeloid leukemia cells?
Result: 0.3 to 30 nM

Task: Notebook: pull reported GI50 for human SKM-1 acute myeloid leukemia cells, entry C[C@@H]1CN(c2cc(-c3cc(F)cc(-c4ccc(-n5ccn(C)c5=O)c(Cl)c4)c3O)ccn2)CCN1C [Example 493]
Result: 0.3 to 30 nM

Task: Enter reported GI50 observed with human SKM-1 acute myeloid leukemia cells for CC(C)c1cc(-c2ccnc(N3CCNCC3)c2)c(O)c(-c2ccc(N3CCN(C)C3=O)c(Cl)c2)c1 [Example 315]
Result: 300 to 3000 nM

Task: Write down the reported GI50 of CN1CCN(c2ccc(-c3cc(F)cc(-c4cnc(OCCO)c(N5CCNCC5)c4)c3O)cc2Cl)C1=O [Example 392] , test system: human SKM-1 acute myeloid leukemia cells.
Result: 30 to 300 nM

Task: Which measured GI50 belongs to CN1CCN(c2cncc(-c3cc(F)cc(-c4ccc(-n5ccn(C)c5=O)c(Cl)c4)c3O)c2)CC1 [Example 465] , tested on human SKM-1 acute myeloid leukemia cells?
Result: 0.3 to 30 nM

====

- tested system: human BRD4 bromodomain II (Homo sapiens, UniProt O60885)
- Construct: human BRD4 bromodomain II [based on Genbank NM_058243, residues 349-460]; host or cells: E. coli
- measurement protocol: Bromodomain binding assay (AlphaScreen), BRD4 BDII
- test conditions: AlphaScreen assay, Table C2; read-out: BRD4 BDII IC50
pIC50: −log10 of the molar value.
quantity kind: pIC50

A selection of reference data follows.
1) CC(=O)Nc1ccc(-c2cccc(-c3ccc(NC(C)=O)c(OC4CCCC4)c3)c2O)cc1F ... < 7.00
2) CC(=O)Nc1ccc(-c2cccc(-c3cccc(N4CCN[C@H](C)C4)c3)c2O)cc1F ... 8.00 to 9.00
3) CC(=O)Nc1ccc(-c2cc(F)cc(-c3ccc(F)c(C4=CCNCC4)c3)c2O)cc1F ... 8.00 to 9.00
4) Cn1ccn(-c2ccc(-c3cc(F)cc(-c4cnc(Cl)c(N5CCN(C(C)(C)C)CC5)c4)c3O)cc2Cl)c1=O ... 8.00 to 9.00
5) CC(=O)Nc1ccc(-c2cccc(-c3cc(N4CCNCC4)no3)c2O)cc1OC(F)F [Example 26, 2,2,2-trifluoroacetate] ... < 7.00
6) Cn1ccn(-c2ccc(-c3cc(F)cc(-c4ccnc(N5CC[C@](C)(N)C5)c4)c3O)cc2Cl)c1=O ... 9.00 to 11.00

# next molecule below
Task: What value of measured pIC50 is listed for C[C@@H]1CN(c2cc(-c3cc(F)cc(-c4ccc(-n5ccn(C)c5=O)c(Cl)c4)c3O)cc3c2ccn3C)CCN1 ?
Result: 9.00 to 11.00

====

Entries and their IC50
- tested system: human BRD4 bromodomain II (Homo sapiens, UniProt O60885)
- Construct: human BRD4 bromodomain II [based on Genbank NM_058243, residues 349-460]; host or cells: E. coli
- measurement protocol: Bromodomain binding assay (AlphaScreen), BRD4 BDII
- test conditions: AlphaScreen assay, Table C2; read-out: BRD4 BDII IC50

Previously resolved entries follow.
1. CC(C)N1CCN(c2cc(-c3cc(F)cc(-c4ccc(-n5ccn(C)c5=O)c(Cl)c4)c3O)ccc2C(F)(F)F)CC1 [Example 811] ... 1 to 10 nM
2. CC(C)N1C2CCC1CN(c1cccc(-c3cc(F)cc(-c4ccc(-n5ccn(C)c5=O)c(Cl)c4)c3O)c1)C2 [Example 846] ... 0.01 to 1 nM
3. CN1CCN(c2ccc(-c3cc(Cl)cc(-c4ccnc(N5CCNCC5)c4)c3O)cc2Cl)C1=O [Example 295] ... 1 to 10 nM
4. CC(=O)Nc1ccc(-c2cccc(-c3ccc(N)nc3)c2O)cc1F [Example 110] ... 10 to 100 nM
5. CN[C@H]1CCCN(c2cc(-c3cc(F)cc(-c4ccc(N5CCN(C)C5=O)c(Cl)c4)c3O)ccn2)C1 [Example 450] ... 1 to 10 nM

Task: Consider the molecule shown here: CN1CCN(c2ccc(-c3cccc(-c4cncc(N5CCNCC5)c4)c3O)cc2Cl)C1=O [Example 293] What is its recorded IC50?
Result: 1 to 10 nM

Task: For the molecule O=C1CCC(=O)N1c1ccc(-c2cccc(-c3ccnc(N4CCNCC4)c3)c2O)cc1F [Example 303] , what IC50 is on record?
Result: > 100 nM

src = patent US20250179059A1
